Tested on: FB
Assay: Euclidean distance of Cell Painting phenotypic profile (signed KS, 77 features) to DMSO centroid (dimensionless distance); 5 or 10 uM (library dependent); higher = stronger phenotypic change vs DMSO (phenoactivity)
Details: 48 h
Structures can show the parent of a compound that is named as a salt.
Decide using Euclidean distance: a value greater than or equal to 1 is satisfied, a smaller one is not satisfied.

- CC(=O)OCC(=O)NCCCOc1cccc(CN2CCCCC2)c1 [Roxatidine Acetate HCl]: not satisfied

Now take the following compound into account.
Euclidean distance >= 1 for CCCCCNC(=N)N/N=C/c1c[nH]c2ccc(OC)cc12 [Tegaserod Maleate] ?
satisfied

* * *

Test system: FB
Test: Euclidean distance of Cell Painting phenotypic profile (signed KS, 77 features) to DMSO centroid (dimensionless distance); 5 or 10 uM (library dependent); higher = stronger phenotypic change vs DMSO (phenoactivity)
Conditions: 48 h
Where a name gives a salt, the structure may show the parent alone.
ENDPOINT: Euclidean distance
Number, no unit, nothing else.

Please review the entries below; each comes with its answer.
* COc1c(O[C@@H]2O[C@H](CO)[C@@H](O)[C@H](O)[C@H]2O)cc2c(c1OC)-c1ccc(SC)c(=O)cc1[C@@H](NC(C)=O)CC2 [Thiocolchicoside] | 1.41
* COc1c(C)c2c(c(O)c1C/C=C(\C)CCC(=O)O)C(=O)OC2 [Mycophenolic acid] | 3.04
* CC/C(=C(\c1ccc(O)cc1)c1ccc(OCCNC)cc1)c1ccccc1 [Endoxifen HCl] | 3.3
* Oc1ccc(C2CNCCc3c2cc(O)c(O)c3Cl)cc1 (configuration not stated) [Fenoldopam mesylate] | 0.976

Please give the measured Euclidean distance for this compound: CO/N=C(\C(=O)N[C@@H]1C(=O)N2C(C(=O)[O-])=C(C[N+]3(C)CCCC3)CS[C@H]12)c1csc(N)n1 [Cefepime Dihydrochloride Monohydrate]
1.1

Which Euclidean distance is reported for this compound? COc1cccc(-c2c(C)n(Cc3c(F)cccc3C(F)(F)F)c(=O)n(C[C@H](NCCCC(=O)O)c3ccccc3)c2=O)c1F [Elagolix Sodium]
0.826

# query: Euclidean distance of entry CC(CCc1ccc(O)cc1)NCC(O)c1ccc(O)cc1 (configuration not stated) [Ractopamine HCl]
1.14

* * *

Tested on: A549
Experiment: Euclidean distance of Cell Painting phenotypic profile (signed KS, 77 features) to DMSO centroid (dimensionless distance); 5 or 10 uM (library dependent); higher = stronger phenotypic change vs DMSO (phenoactivity)
Conditions: 48 h
Structures can show the parent of a compound that is named as a salt.
ENDPOINT: Euclidean distance
// print number alone

Take a look at these entries with their results.
- C[C@H](NC(=O)C(=O)Nc1ccccc1C(C)(C)C)C(=O)N[C@@H](CC(=O)O)C(=O)COc1c(F)c(F)cc(F)c1F: 0.567
- COc1ccc(C2C(=O)c3ccccc3C2=O)cc1: 0.546
- c1ccc(NCc2ccc(CNc3ccccn3)cc2)nc1: 1.08

Item CC(=O)Oc1cc2c(s1)CCN(C(C(=O)C1CC1)c1ccccc1F)C2 (stereo not drawn) [Prasugrel Hydrochloride] has what recorded Euclidean distance?
0.726

Reported Euclidean distance, molecule `CC(=O)[C@H]1CC[C@H]2[C@@H]3CCC4=CC(=O)CC[C@]4(C)[C@H]3CC[C@]12C` : ____
0.774

* * *

Tested on: DU145
Assay: Euclidean distance of Cell Painting phenotypic profile (signed KS, 77 features) to DMSO centroid (dimensionless distance); 5 or 10 uM (library dependent); higher = stronger phenotypic change vs DMSO (phenoactivity)
Conditions: 48 h
Counter-ions that a name gives are not always drawn.
ENDPOINT: Euclidean distance
Respond with the number and no other words.

Here is how some molecules turned out for Euclidean distance.
• COCCNc1cc(NC(=O)N2CCCc3cc(CN4CCN(C)CC4=O)c(C=O)nc32)ncc1C#N = 0.736
• C[C@H](NC(=O)Cc1cc(F)cc(F)c1)C(=O)N[C@H](C(=O)OC(C)(C)C)c1ccccc1 = 1.11
• CN(C)c1ccc2c(c1)Sc1cc(N(C)C)ccc1N2 [TRx0237 (LMTX) mesylate] = 2.69

// Euclidean distance lookup, key: `CO[C@@H]1[C@@H](O[C@@H]2O[C@H](C)[C@@H](O[C@H]3C[C@@](C)(O)[C@@H](O)[C@H](C)O3)[C@H](N(C)C)[C@H]2O)[C@@H](CC=O)C[C@@H](C)[C@@H](O[C@H]2CC[C@H](N(C)C)[C@@H](C)O2)/C=C/C=C/C[C@@H](C)OC(=O)C[C@H]1OC(C)=O`
2.15

Query (molecule): `O=C1C(=O)N(Cc2ccc(Cl)c(Cl)c2)c2ccccc21` ; field requested: Euclidean distance
1.29

// Euclidean distance lookup, key: CC(C)(C)C(=O)Oc1ccc(S(=O)(=O)Nc2ccccc2C(=O)NCC(=O)O)cc1 [Sivelestat (ONO-5046)]
0.861

I have this molecule here, CCCN[C@H]1CCc2nc(N)sc2C1 [Pramipexole] , and I need its recorded Euclidean distance.
1.04

Which measured Euclidean distance value corresponds to CNC(=O)c1ccc(N2C(=S)N(c3ccc(C#N)c(C(F)(F)F)c3)C(=O)C2(C)C)cc1F [Enzalutamide (MDV3100)] ?
1.2

Can you share its Euclidean distance? I mean this molecule: Cc1ccc(NC(=O)c2ccc(CN3CCN(C)CC3)cc2)cc1Nc1nccc(-c2cccnc2)n1 [Imatinib (STI571)]
1.9

Which measured Euclidean distance value corresponds to `Cc1cnc(CNC(=O)c2c(=O)c3ccc(N4CCCN(C)CC4)nc3n3c2sc2ccccc23)cn1` ?
2.7

Would you kindly share the measured Euclidean distance for `O=C(c1ccc(OCCCc2c[nH]cn2)cc1)C1CC1` ?
1.03

Look up Euclidean distance: Cc1cccc(C)c1OCC(C)N (stereo unspecified) [Mexiletine HCl]
0.639

Requested field: Euclidean distance. Item: `COc1ccc(-c2ccc3ncc4c(c3c2)n(-c2ccc(N3CCNCC3)c(C(F)(F)F)c2)c(=O)n4C)cn1`
7.61

Requested read-out: Euclidean distance. Entry: `C/C(=N\NC(=S)N1CCC1)c1ccccn1`
3.44

Record request: Euclidean distance value, item `COc1cc(OC2CCN(C)CC2)ccc1Nc1ncc2c(n1)n(C1CCCC1)c(=O)n2C`
1.39

Reported Euclidean distance, molecule `CC1=C(/C=C/C(C)=C/C=C/C(C)=C\C(=O)O)C(C)(C)CCC1` : ____
1.24
